# TESTED ON: CDK7/Cyclin H/MAT1 kinase (Homo sapiens (Human))
# Sequence (P50613 whole entry): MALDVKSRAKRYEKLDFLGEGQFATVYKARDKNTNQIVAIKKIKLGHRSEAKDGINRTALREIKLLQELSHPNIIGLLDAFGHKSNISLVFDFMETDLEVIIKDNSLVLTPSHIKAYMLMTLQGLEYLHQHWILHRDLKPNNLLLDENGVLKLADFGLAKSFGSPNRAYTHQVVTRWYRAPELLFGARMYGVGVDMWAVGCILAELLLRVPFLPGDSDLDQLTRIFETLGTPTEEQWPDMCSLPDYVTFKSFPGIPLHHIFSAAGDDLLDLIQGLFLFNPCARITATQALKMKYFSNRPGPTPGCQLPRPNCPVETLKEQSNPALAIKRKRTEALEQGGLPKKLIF
# Sequence (P51946 whole entry partner): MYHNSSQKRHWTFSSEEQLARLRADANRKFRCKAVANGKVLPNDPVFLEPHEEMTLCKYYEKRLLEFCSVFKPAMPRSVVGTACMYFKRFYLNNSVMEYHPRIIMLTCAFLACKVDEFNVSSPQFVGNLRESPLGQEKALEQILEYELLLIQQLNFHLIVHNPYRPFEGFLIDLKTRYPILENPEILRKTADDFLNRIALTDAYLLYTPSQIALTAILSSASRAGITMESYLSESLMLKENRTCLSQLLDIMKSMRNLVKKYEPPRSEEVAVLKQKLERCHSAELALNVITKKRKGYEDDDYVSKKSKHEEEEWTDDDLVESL
# Sequence (P51948 whole entry partner): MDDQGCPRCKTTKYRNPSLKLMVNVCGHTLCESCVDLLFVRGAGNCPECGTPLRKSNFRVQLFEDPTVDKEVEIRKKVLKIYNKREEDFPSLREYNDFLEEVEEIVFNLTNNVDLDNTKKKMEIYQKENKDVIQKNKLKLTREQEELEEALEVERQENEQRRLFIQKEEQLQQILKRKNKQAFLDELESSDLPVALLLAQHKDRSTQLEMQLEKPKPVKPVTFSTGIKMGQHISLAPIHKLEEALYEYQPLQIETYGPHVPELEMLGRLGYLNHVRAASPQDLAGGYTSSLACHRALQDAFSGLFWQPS
# ASSAY EXPLANATION: Enzyme activity test, mobility shift assay (Table 1)
# Assay type: biochemical
# TEST SETTINGS: 2 mM ATP; pre-incubated 0 and 60 minutes
pIC50: −log10 of the molar value.
ENDPOINT LABEL: pIC50

O=C1OCCN1c1ccc2c(-c3nc(N[C@H]4CCNC4)ncc3C(F)(F)F)c[nH]c2c1Br 6.30 to 7.30
COC(=O)Nc1ccc2c(-c3nc(N[C@H]4CCC(C)(C)NC4)ncc3Cl)c[nH]c2c1OC(F)(F)F > 7.30
COC(=O)Nc1ccc2c(-c3nc(N[C@H]4CCC5(CC5)NC4)ncc3C(F)(F)F)c[nH]c2c1OCC(F)(F)F > 7.30

With those in mind, consider the next molecule.
Provide one value: measured pIC50 of "COC(=O)Nc1ccc2c(-c3nc(NC4CC5(CNC5)C4)ncc3C(F)(F)F)c[nH]c2c1Br"
> 7.30
